This collection of values is drawn from patent US20240109865A1.

Overview of recorded Kd for various compounds
study-system: FGFR1 (Homo sapiens (Human), UniProt P11362)
Sequence (P11362 22-822): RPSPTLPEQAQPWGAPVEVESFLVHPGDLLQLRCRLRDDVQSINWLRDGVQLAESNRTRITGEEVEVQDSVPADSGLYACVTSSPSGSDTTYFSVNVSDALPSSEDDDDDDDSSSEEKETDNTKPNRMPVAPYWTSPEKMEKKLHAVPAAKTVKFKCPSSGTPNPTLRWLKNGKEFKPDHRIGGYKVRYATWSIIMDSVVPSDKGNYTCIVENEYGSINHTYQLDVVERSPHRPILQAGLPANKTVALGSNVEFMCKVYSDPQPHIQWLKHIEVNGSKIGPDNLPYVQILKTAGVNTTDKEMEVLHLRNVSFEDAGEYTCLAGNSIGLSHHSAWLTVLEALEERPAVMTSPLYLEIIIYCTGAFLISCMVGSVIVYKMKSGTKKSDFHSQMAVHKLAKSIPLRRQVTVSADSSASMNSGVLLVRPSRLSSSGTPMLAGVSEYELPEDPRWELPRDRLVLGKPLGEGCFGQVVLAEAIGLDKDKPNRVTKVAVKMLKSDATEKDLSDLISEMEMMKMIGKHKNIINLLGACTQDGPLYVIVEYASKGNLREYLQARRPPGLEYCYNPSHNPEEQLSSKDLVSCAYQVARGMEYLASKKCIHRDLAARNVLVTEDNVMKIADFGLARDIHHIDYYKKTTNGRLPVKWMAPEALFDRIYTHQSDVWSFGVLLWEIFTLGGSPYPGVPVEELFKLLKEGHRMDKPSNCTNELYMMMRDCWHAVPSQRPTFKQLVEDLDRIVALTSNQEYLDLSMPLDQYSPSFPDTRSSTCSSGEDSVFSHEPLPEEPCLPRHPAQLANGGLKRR
protocol-notes: Kinase assay, binding constants (Kd), kinase-tagged T7 phage, qPCR

{"compound": "Cc1cnnc(C)c1[C@@H](C)Oc1ccc2[nH]nc(-c3cnc(N4CCC[C@H]4CO)c(C#N)c3)c2c1", "study-system": "FGFR1 (Homo sapiens (Human), UniProt P11362)", "Kd": "20 to 100 nM"}
{"compound": "CC(Oc1ccc2[nH]nc(-c3ccc(N4CC5(C4)CN(S(C)(=O)=O)C5)nc3)c2c1)c1c(Cl)ccnc1Cl (stereo not shown)", "study-system": "FGFR1 (Homo sapiens (Human), UniProt P11362)", "Kd": "20 to 100 nM"}
{"compound": "C[C@@H](Oc1ccc2[nH]nc(-c3ccc(N4CCC5(CCOC5)CC4)nc3)c2c1)c1c(Cl)cncc1Cl", "study-system": "FGFR1 (Homo sapiens (Human), UniProt P11362)", "Kd": "20 to 100 nM"}
{"compound": "COc1cc(-c2n[nH]c3ccc(O[C@H](C)c4c(Cl)cncc4Cl)cc23)cnc1N1CC2(C1)CN(S(C)(=O)=O)C2", "study-system": "FGFR1 (Homo sapiens (Human), UniProt P11362)", "Kd": "> 300 nM"}
{"compound": "Cc1ncc(Cl)c([C@@H](C)Oc2ccc3[nH]nc(-c4cnc(N5CC6(C5)CN(S(C)(=O)=O)C6)c(F)c4)c3c2)c1Cl", "study-system": "FGFR1 (Homo sapiens (Human), UniProt P11362)", "Kd": "20 to 100 nM"}
{"compound": "CCC(=O)N1CCN(c2ccc(-c3n[nH]c4ccc(O[C@H](C)c5c(Cl)cncc5Cl)cc34)cn2)CC1", "study-system": "FGFR1 (Homo sapiens (Human), UniProt P11362)", "Kd": "1 to 20 nM"}
{"compound": "C[C@@H](Oc1ccc2[nH]nc(-c3ccc(N4CCNC(=O)C4)nc3)c2c1)c1c(Cl)cncc1Cl", "study-system": "FGFR1 (Homo sapiens (Human), UniProt P11362)", "Kd": "1 to 20 nM"}
{"compound": "C[C@@H](Oc1ccc2[nH]nc(-c3cnc(N4CCCN(C5COC5)CC4)nc3)c2c1)c1c(Cl)cncc1Cl", "study-system": "FGFR1 (Homo sapiens (Human), UniProt P11362)", "Kd": "1 to 20 nM"}
{"compound": "CCOC(=O)N1CC2(C1)CN(c1ccc(-c3n[nH]c4ccc(O[C@@H](C)c5c(Cl)cnc(F)c5Cl)cc34)cn1)C2", "study-system": "FGFR1 (Homo sapiens (Human), UniProt P11362)", "Kd": "> 300 nM"}
{"compound": "Cc1ncc(Cl)c([C@@H](C)Oc2ccc3[nH]nc(-c4cnn(C5CCOCC5)c4)c3c2)c1Cl", "study-system": "FGFR1 (Homo sapiens (Human), UniProt P11362)", "Kd": "20 to 100 nM"}
{"compound": "C[C@@H](Oc1ccc2[nH]nc(-c3ccc(N4CC5(CNC5)C4)nc3)c2c1)c1c(Cl)cncc1Cl", "study-system": "FGFR1 (Homo sapiens (Human), UniProt P11362)", "Kd": "1 to 20 nM"}
{"compound": "C[C@@H](Oc1ccc2[nH]nc(-c3ccc(N4CC5(CN(C(=O)N(C)C)C5)C4)nc3)c2c1)c1c(Cl)cncc1Cl", "study-system": "FGFR1 (Homo sapiens (Human), UniProt P11362)", "Kd": "1 to 20 nM"}
{"compound": "Cc1ncc(Cl)c([C@@H](C)Oc2ccc3[nH]nc(-c4cnc(N5CC6(CCCN(S(C)(=O)=O)C6)C5)c(C#N)c4)c3c2)c1Cl", "study-system": "FGFR1 (Homo sapiens (Human), UniProt P11362)", "Kd": "> 300 nM"}
{"compound": "C[C@@H](Oc1ccc2[nH]nc(-c3ccc(N4CCC5(CCNC5=O)CC4)nc3)c2c1)c1c(Cl)cncc1Cl", "study-system": "FGFR1 (Homo sapiens (Human), UniProt P11362)", "Kd": "20 to 100 nM"}
{"compound": "CC(C)N1CC2(CN(c3ccc(-c4n[nH]c5ccc(O[C@H](C)c6c(Cl)cncc6Cl)cc45)cn3)C2)C1", "study-system": "FGFR1 (Homo sapiens (Human), UniProt P11362)", "Kd": "1 to 20 nM"}
{"compound": "CCN1C2CC1CN(c1ccc(-c3n[nH]c4cc(OC)c(O[C@H](C)c5c(C)cnnc5C)cc34)cn1)C2", "study-system": "FGFR1 (Homo sapiens (Human), UniProt P11362)", "Kd": "1 to 20 nM"}
{"compound": "COc1cc2[nH]nc(-c3cnc(N4CC5(COC5)C4)c(C)c3)c2cc1O[C@H](C)c1c(C)cnnc1C", "study-system": "FGFR1 (Homo sapiens (Human), UniProt P11362)", "Kd": "20 to 100 nM"}
{"compound": "C[C@@H](Oc1ccc2[nH]nc(-c3cnc(N4CCC4)c(C#N)c3)c2c1)c1c(Cl)cnnc1Cl", "study-system": "FGFR1 (Homo sapiens (Human), UniProt P11362)", "Kd": "> 300 nM"}
{"compound": "C[C@@H](Oc1ccc2[nH]nc(-c3ccc(N4CC5(CCN(S(C)(=O)=O)CC5)OC4=O)nc3)c2c1)c1c(Cl)cncc1Cl", "study-system": "FGFR1 (Homo sapiens (Human), UniProt P11362)", "Kd": "20 to 100 nM"}
{"compound": "COc1cc2[nH]nc(-c3cnc(N4CC[C@H](O)C4)c(C#N)c3)c2cc1O[C@H](C)c1c(Cl)cncc1Cl", "study-system": "FGFR1 (Homo sapiens (Human), UniProt P11362)", "Kd": "1 to 20 nM"}
{"compound": "C[C@@H](Oc1ccc2[nH]nc(-c3cnc(N4CC[C@H](O)C4)c(C#N)c3)c2c1)c1c(Cl)cnc(F)c1Cl", "study-system": "FGFR1 (Homo sapiens (Human), UniProt P11362)", "Kd": "> 300 nM"}
{"compound": "C[C@@H](Oc1ccc2[nH]nc(-c3cnn(C4CCN(C5CCC5)CC4)c3)c2c1)c1c(Cl)cncc1Cl", "study-system": "FGFR1 (Homo sapiens (Human), UniProt P11362)", "Kd": "1 to 20 nM"}
{"compound": "C[C@@H](Oc1ccc2[nH]nc(-c3ccc(N4CCN(S(=O)(=O)N5CCN(C)CC5)CC4)nc3)c2c1)c1c(Cl)cncc1Cl", "study-system": "FGFR1 (Homo sapiens (Human), UniProt P11362)", "Kd": "20 to 100 nM"}
{"compound": "COc1cc2[nH]nc(-c3ccc(N4CC5CC(C4)N5)nc3)c2cc1O[C@H](C)c1c(C)cnnc1C", "study-system": "FGFR1 (Homo sapiens (Human), UniProt P11362)", "Kd": "1 to 20 nM"}
{"compound": "COC(=O)N1CC2(C1)CN(c1ccc(-c3n[nH]c4ccc(O[C@H](C)c5c(C)cnnc5C)cc34)cn1)C2", "study-system": "FGFR1 (Homo sapiens (Human), UniProt P11362)", "Kd": "1 to 20 nM"}
{"compound": "COc1cc2[nH]nc(-c3cnc(N4CCC4)c(S(C)(=O)=O)c3)c2cc1O[C@H](C)c1c(Cl)cncc1Cl", "study-system": "FGFR1 (Homo sapiens (Human), UniProt P11362)", "Kd": "> 300 nM"}
{"compound": "Cc1ncc(Cl)c([C@@H](C)Oc2ccc3[nH]nc(-c4cnc(N5CC(CC(F)(F)F)C5)c(C#N)c4)c3c2)c1Cl", "study-system": "FGFR1 (Homo sapiens (Human), UniProt P11362)", "Kd": "> 300 nM"}
{"compound": "COc1cc(-c2n[nH]c3ccc(O[C@H](C)c4c(C)cnnc4C)cc23)cnc1N1CCC1", "study-system": "FGFR1 (Homo sapiens (Human), UniProt P11362)", "Kd": "> 300 nM"}
